procedureText: in vivo
studyConditions: male, monkey, plasma, po, 75 mg/kg
parameterMeasured: Cmax

Input line: Recorded Cmax for NCC1(CC(=O)O)CCCCC1 [gabapentin] , please?
Output line: 10800 ng/mL

* * *

procedureText: in vivo
studyConditions: male, monkey, plasma, po, 75 mg/kg
parameterMeasured: bioavailability (%)
Give bare numbers, in %.

Input line: Recorded bioavailability for NCC1(CC(=O)O)CCCCC1 , please?
Output line: 22.9

* * *

procedureText: in vivo
studyConditions: male, monkey, plasma, po, 10 mg/kg
parameterMeasured: AUC (ng·h/mL)
Give bare numbers, in ng·h/mL.

Input line: Recorded AUC for NCC1(CC(=O)O)CCCCC1 , please?
Output line: 32100

Source: patent US20030181390A1
